Tested on: A549 cells
Assay: Cell proliferation assay (MTS), A549
Format: cell-based, human
Conditions: ON180 alone, Lipofectamine-2000 transfection, FIG. 1A, 1B, read-out: cell growth IC50
pIC50: −log10 of the molar value. Oligonucleotides are written 5' to 3', each unit as a sugar letter and its base; * is a phosphorothioate linkage, no mark a phosphodiester; rarer units and linkages stand in square brackets, end groups in braces. Plain capitals give the bases only. l = locked nucleic acid (LNA); [5mC] = 5-methylcytosine; d = 2'-deoxy (DNA)
readoutKind: pIC50

Q: Which measured pIC50 belongs to 5′-TsAsGscscstsgstscsascststs^MeCsTs^MeC-3′ (lT*lA*lG*dC*dC*dT*dG*dT*dC*dA*dC*dT*dT*l[5mC]*lT*l[5mC]) [ON180] , tested on A549 cells?
Result: > 8.30

====

Tested on: DU145 cells
Assay: Cell proliferation assay (MTS), DU145
Assay type: cell-based, human
Details: ON180 alone, Lipofectamine-2000 transfection, FIG. 4A, 4B, read-out: cell growth IC50
pIC50: −log10 of the molar value. Oligonucleotides are written 5' to 3', each unit as a sugar letter and its base; * is a phosphorothioate linkage, no mark a phosphodiester; rarer units and linkages stand in square brackets, end groups in braces. Plain capitals give the bases only. l = locked nucleic acid (LNA); [5mC] = 5-methylcytosine; d = 2'-deoxy (DNA)
readoutKind: pIC50

Q: Find the recorded pIC50 belonging to 5′-TsAsGscscstsgstscsascststs^MeCsTs^MeC-3′ (lT*lA*lG*dC*dC*dT*dG*dT*dC*dA*dC*dT*dT*l[5mC]*lT*l[5mC]) [ON180] and report it.
Result: > 8.30

====

Tested on: SKBR3 cells
Test: Cell proliferation assay (MTS), SKBR3
Assay type: cell-based, human
Conditions: ON180 alone, Lipofectamine-2000 transfection, FIG. 5A, 5B, read-out: cell growth IC50
pIC50: −log10 of the molar value. Oligonucleotides are written 5' to 3', each unit as a sugar letter and its base; * is a phosphorothioate linkage, no mark a phosphodiester; rarer units and linkages stand in square brackets, end groups in braces. Plain capitals give the bases only. l = locked nucleic acid (LNA); [5mC] = 5-methylcytosine; d = 2'-deoxy (DNA)
readoutKind: pIC50

Q: Look up pIC50 with SKBR3 cells for this substance: 5′-TsAsGscscstsgstscsascststs^MeCsTs^MeC-3′ (lT*lA*lG*dC*dC*dT*dG*dT*dC*dA*dC*dT*dT*l[5mC]*lT*l[5mC]) [ON180]
Result: > 8.30

====

Test system: A431 cells
Assay: Cell proliferation assay (MTS), A431
Type: cell-based, human
Details: ON180 alone, Lipofectamine-2000 transfection, FIG. 6A, 6B, read-out: cell growth IC50
pIC50: −log10 of the molar value. Oligonucleotides are written 5' to 3', each unit as a sugar letter and its base; * is a phosphorothioate linkage, no mark a phosphodiester; rarer units and linkages stand in square brackets, end groups in braces. Plain capitals give the bases only. l = locked nucleic acid (LNA); [5mC] = 5-methylcytosine; d = 2'-deoxy (DNA)
readoutKind: pIC50

Q: Data request, read-out pIC50, for 5′-TsAsGscscstsgstscsascststs^MeCsTs^MeC-3′ (lT*lA*lG*dC*dC*dT*dG*dT*dC*dA*dC*dT*dT*l[5mC]*lT*l[5mC]) [ON180]
Result: > 9.00

====

System: 15PC3 cells
Experiment: Cell proliferation assay (MTS), 15PC3
Format: cell-based, human
Details: ON180 alone, Lipofectamine-2000 transfection, FIG. 3A, 3B, read-out: cell growth IC50
pIC50: −log10 of the molar value. Oligonucleotides are written 5' to 3', each unit as a sugar letter and its base; * is a phosphorothioate linkage, no mark a phosphodiester; rarer units and linkages stand in square brackets, end groups in braces. Plain capitals give the bases only. l = locked nucleic acid (LNA); [5mC] = 5-methylcytosine; d = 2'-deoxy (DNA)
readoutKind: pIC50

Q: Which pIC50 value is on record for 5′-TsAsGscscstsgstscsascststs^MeCsTs^MeC-3′ (lT*lA*lG*dC*dC*dT*dG*dT*dC*dA*dC*dT*dT*l[5mC]*lT*l[5mC]) [ON180] ?
Result: > 8.70

These measurements were taken from patent US20120004285A1.
